# MEASURED ON: human recombinant ROCK II (Homo sapiens, UniProt O75116)
# Construct: N-terminal His6-tagged recombinant human ROCK-II residues 11-552; His6 (N)
# Sequence (O75116 11-552): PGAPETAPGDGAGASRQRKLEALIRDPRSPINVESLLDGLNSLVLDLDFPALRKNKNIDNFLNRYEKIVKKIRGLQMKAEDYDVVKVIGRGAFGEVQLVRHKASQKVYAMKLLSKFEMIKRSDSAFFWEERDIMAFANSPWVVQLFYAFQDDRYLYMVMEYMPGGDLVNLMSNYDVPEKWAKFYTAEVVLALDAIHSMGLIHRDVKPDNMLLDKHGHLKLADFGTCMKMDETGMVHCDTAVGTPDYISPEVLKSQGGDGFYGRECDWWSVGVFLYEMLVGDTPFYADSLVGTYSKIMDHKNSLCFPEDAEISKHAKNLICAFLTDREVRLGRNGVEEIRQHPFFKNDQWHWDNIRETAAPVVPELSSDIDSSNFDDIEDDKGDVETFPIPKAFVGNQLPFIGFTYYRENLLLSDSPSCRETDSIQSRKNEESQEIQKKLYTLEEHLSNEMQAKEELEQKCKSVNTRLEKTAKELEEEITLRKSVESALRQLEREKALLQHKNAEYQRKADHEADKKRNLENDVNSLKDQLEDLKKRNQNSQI
# MEASUREMENT NOTES: Determination of Rho kinase inhibition (Caliper peptide phosphorylation assay)
# DETAILS: 60 min at 32° C., negative decadal logarithm of the IC50
MEASURED ATTRIBUTE: IC50

Guide cases for IC50, answers given:
COMPOUND	MEASURED ATTRIBUTE	READING
CC(N)(c1ccc(F)cc1)C1CCC(Oc2cc3cc[nH]c(=O)c3cc2Cl)CC1 (single isomer, unassigned) [Example 116]	IC50	10 to 100 nM
CCCC(C)(N)C1CCC(Oc2cc3cc[nH]c(=O)c3cc2Cl)CC1 (single isomer, unassigned) [Example 121]	IC50	10 to 100 nM
NC(C1CCC(Oc2cc3cc[nH]c(=O)c3cc2Cl)CC1)C1CC1 (single isomer, unassigned) [Example 131]	IC50	100 to 1000 nM
CCC(N)C1CCC(Oc2cc3cc[nH]c(=O)c3cc2Cl)CC1 (single isomer, unassigned) [Example 129]	IC50	10 to 100 nM
CC(N)(C1CCC(Oc2cc3cc[nH]c(=O)c3cc2Cl)CC1)C1CC1 (single isomer, unassigned) [Example 120]	IC50	100 to 1000 nM

Inquiry: Quick check: IC50 of CCC(N)(CC)C1CCC(Oc2cc3cc[nH]c(=O)c3cc2Cl)CC1 (single isomer, unassigned) [Example 122] ?
Reply text: 10 to 100 nM

Inquiry: Using the record for CC(N)(c1ccccc1)C1CCC(Oc2cc3cc[nH]c(=O)c3cc2Cl)CC1 (single isomer, unassigned) [Example 123] , report its IC50.
Reply text: 10 to 100 nM

Inquiry: Look up IC50: CCC(N)(CC)C1CCC(Oc2cc3cc[nH]c(=O)c3cc2Cl)CC1 (single isomer, unassigned) [Example 119]
Reply text: 100 to 1000 nM

Inquiry: Please look up its IC50: Cc1ccc(C(N)C2CCC(Oc3cc4cc[nH]c(=O)c4cc3Cl)CC2)cc1 (single isomer, unassigned) [Example 38]
Reply text: ≤ 10 nM

Inquiry: IC50 for NC(c1ccccc1)C1(c2ccccc2)CCC(Oc2cc3cc[nH]c(=O)c3cc2Cl)CC1 (single isomer, unassigned) [Example 42] ?
Reply text: 10 to 100 nM

Inquiry: Entry under review: NC(c1ccc(F)cc1)C1CCC(Oc2cc3cc[nH]c(=O)c3cc2Cl)CC1 (single isomer, unassigned) [Example 37] . Reported IC50?
Reply text: ≤ 10 nM

Inquiry: IC50 lookup needed for CC(N)(C1CCCC1)C1CCC(Oc2cc3cc[nH]c(=O)c3cc2Cl)CC1 (single isomer, unassigned) [Example 118] , thanks.
Reply text: 100 to 1000 nM

Inquiry: Item under review: Cc1ccc(C(N)C2CCC(Oc3cc4cc[nH]c(=O)c4cc3Cl)CC2)cc1 (single isomer, unassigned) [Example 39] . Reported IC50?
Reply text: 10 to 100 nM

Inquiry: Given NC(c1ccccc1)C1(c2ccccc2)CCC(Oc2cc3cc[nH]c(=O)c3cc2Cl)CC1 (single isomer, unassigned) [Example 41] , state its recorded IC50.
Reply text: 100 to 1000 nM

Inquiry: GET /values?readout=IC50&item= COc1ccc(C(N)[C@H]2CC[C@@H](Oc3cc4cc[nH]c(=O)c4cc3Cl)CC2)cc1 (single isomer, unassigned) [Example 35]
Reply text: ≤ 10 nM

Inquiry: IC50 lookup needed for NC(c1ccccc1)C1CCC(Oc2cc3cc[nH]c(=O)c3cc2Cl)CC1 (single isomer, unassigned) [Example 40] , thanks.
Reply text: 100 to 1000 nM

Inquiry: Any idea what IC50 was measured for COc1ccc(C(N)[C@H]2CC[C@@H](Oc3cc4cc[nH]c(=O)c4cc3Cl)CC2)cc1 (single isomer, unassigned) [Example 36] ?
Reply text: 10 to 100 nM
